The reported numbers originate from patent US11358968B2.

# protocol text: Acute i.v. infusion in rats; plasma and kidney levels by LC-MS-MS
# Format: in vivo, rat
# assay setup: male, Sprague-Dawley, plasma, intravenous; rat, i.v. infusion 10 mg/kg/hr for 6 hours via jugular vein, LC-MS-MS; read-out: plasma level
parameter measured: concentration at 6 h (ng/mL)
Your answer is read as ng/mL, so omit the unit and give the number.

// query Fill in: concentration at 6 h of CCCCCNC(=O)NCCCC/C=C\CCCCCCC(=O)NCCOCCOCCNC(=O)CC[C@H](NC(=O)c1ccc(NCc2cnc3nc(N)[nH]c(=O)c3n2)cc1)C(=O)O [EET-FO1] is ___
// result 6.5
